Please provide measured Loewe synergy score for the entries that follow.
Tested on: SF539
Experiment: Loewe synergy score (Combenefit); higher = more synergy; extreme values may be limits of the assay
Conditions: exposure time: 72 h
Give your answer as a number; write no unit.

stdin: Given Nc1ccn([C@@H]2O[C@H](CO)[C@@H](O)C2(F)F)c(=O)n1 [Gemcitabine] + CO[C@H]1C[C@@H]2CC[C@@H](C)[C@@](O)(O2)C(=O)C(=O)N2CCCC[C@H]2C(=O)O[C@H]([C@H](C)C[C@@H]2CC[C@@H](O)[C@H](OC)C2)CC(=O)[C@H](C)/C=C(\C)[C@@H](O)[C@@H](OC)C(=O)[C@H](C)C[C@H](C)/C=C/C=C/C=C/1C [Rapamycin] , respond with its Loewe synergy score.
stdout: 16.9

stdin: Given CCC(=O)N1CCN(c2ccc(-n3c(=O)ccc4cnc5ccc(-c6cnc7ccccc7c6)cc5c43)cc2C(F)(F)F)CC1 [Torin1] + O=c1[nH]c2ccccc2n1C1CCN(Cc2ccc(-c3[nH]c4cc5ncnc5cc4nc3-c3ccccc3)cc2)CC1 [Akt inhibitor VIII] , respond with its Loewe synergy score.
stdout: 9.28

stdin: Given CCC(=O)N1CCN(c2ccc(-n3c(=O)ccc4cnc5ccc(-c6cnc7ccccc7c6)cc5c43)cc2C(F)(F)F)CC1 [Torin1] + CCCCCCCCCCCC1=C(O)C(=O)C=C(O)C1=O [Embelin] , respond with its Loewe synergy score.
stdout: 1.98

stdin: Given CO[C@H]1C[C@@H]2CC[C@@H](C)[C@@](O)(O2)C(=O)C(=O)N2CCCC[C@H]2C(=O)O[C@H]([C@H](C)C[C@@H]2CC[C@@H](O)[C@H](OC)C2)CC(=O)[C@H](C)/C=C(\C)[C@@H](O)[C@@H](OC)C(=O)[C@H](C)C[C@H](C)/C=C/C=C/C=C/1C [Rapamycin] + C=CCc1cccc(/C=N/NC(=O)CN2CCN(Cc3ccccc3)CC2)c1O [PAC-1] , respond with its Loewe synergy score.
stdout: 3.72

stdin: Given CC(=O)O[C@@]12CO[C@@H]1C[C@H](O)[C@@]1(C)C(=O)[C@H](O)C3=C(C)[C@@H](OC(=O)[C@H](O)[C@@H](NC(=O)OC(C)(C)C)c4ccccc4)C[C@@](O)([C@@H](OC(=O)c4ccccc4)[C@H]21)C3(C)C [Docetaxel] + O=c1[nH]c2ccccc2n1C1CCN(Cc2ccc(-c3[nH]c4cc5ncnc5cc4nc3-c3ccccc3)cc2)CC1 [Akt inhibitor VIII] , respond with its Loewe synergy score.
stdout: 1.09

stdin: Given C[C@@H](Oc1cc(-c2cnn(C3CCNCC3)c2)cnc1N)c1c(Cl)ccc(F)c1Cl [Crizotinib] + C=CCc1cccc(/C=N/NC(=O)CN2CCN(Cc3ccccc3)CC2)c1O [PAC-1] , respond with its Loewe synergy score.
stdout: 0.62

stdin: Given CO[C@H]1C[C@@H]2CC[C@@H](C)[C@@](O)(O2)C(=O)C(=O)N2CCCC[C@H]2C(=O)O[C@H]([C@H](C)C[C@@H]2CC[C@@H](O)[C@H](OC)C2)CC(=O)[C@H](C)/C=C(\C)[C@@H](O)[C@@H](OC)C(=O)[C@H](C)C[C@H](C)/C=C/C=C/C=C/1C [Rapamycin] + C[C@@H](Oc1cc(-c2cnn(C3CCNCC3)c2)cnc1N)c1c(Cl)ccc(F)c1Cl [Crizotinib] , respond with its Loewe synergy score.
stdout: 3.24

stdin: Given C=CCc1cccc(/C=N/NC(=O)CN2CCN(Cc3ccccc3)CC2)c1O [PAC-1] + Cc1cc([C@@H](C)Nc2ccccc2C(=O)O)c2nc(N3CCOCC3)cc(=O)n2c1 [AZD6482] , respond with its Loewe synergy score.
stdout: 0.0112

stdin: Given CO[C@H]1C[C@@H]2CC[C@@H](C)[C@@](O)(O2)C(=O)C(=O)N2CCCC[C@H]2C(=O)O[C@H]([C@H](C)C[C@@H]2CC[C@@H](O)[C@H](OC)C2)CC(=O)[C@H](C)/C=C(\C)[C@@H](O)[C@@H](OC)C(=O)[C@H](C)C[C@H](C)/C=C/C=C/C=C/1C [Rapamycin] + Cc1cc([C@@H](C)Nc2ccccc2C(=O)O)c2nc(N3CCOCC3)cc(=O)n2c1 [AZD6482] , respond with its Loewe synergy score.
stdout: 5.95

* * *

Test system: AM38
Experiment: Chou-Talalay combination index (dimensionless); higher = less synergy (more antagonism)
Conditions: exposure time: 72 h
Reported Property: Chou-Talalay combination index

stdin: Given Nc1ccn([C@@H]2O[C@H](CO)[C@@H](O)C2(F)F)c(=O)n1 [Gemcitabine] + CCOc1nc(NC(=O)Cc2cc(OC)ccc2OC)cc(N)c1C#N [JNK inhibitor VIII] , respond with its Chou-Talalay combination index.
stdout: 1.14

stdin: Given Cc1cc([C@@H](C)Nc2ccccc2C(=O)O)c2nc(N3CCOCC3)cc(=O)n2c1 [AZD6482] + CCOc1nc(NC(=O)Cc2cc(OC)ccc2OC)cc(N)c1C#N [JNK inhibitor VIII] , respond with its Chou-Talalay combination index.
stdout: 0.77

stdin: Given CC(=O)O[C@@]12CO[C@@H]1C[C@H](O)[C@@]1(C)C(=O)[C@H](O)C3=C(C)[C@@H](OC(=O)[C@H](O)[C@@H](NC(=O)OC(C)(C)C)c4ccccc4)C[C@@](O)([C@@H](OC(=O)c4ccccc4)[C@H]21)C3(C)C [Docetaxel] + N#CC(c1ccnc(NCCc2cccnc2)n1)c1nc2ccccc2s1 [AS601245] , respond with its Chou-Talalay combination index.
stdout: 1.13

* * *

Tested on: U87
Experiment: Loewe synergy score (Combenefit); higher = more synergy; extreme values may be limits of the assay
Settings: exposure time: 72 h
Reported Property: Loewe synergy score
Give your answer as a number; write no unit.

stdin: Given CC(=O)O[C@@]12CO[C@@H]1C[C@H](O)[C@@]1(C)C(=O)[C@H](O)C3=C(C)[C@@H](OC(=O)[C@H](O)[C@@H](NC(=O)OC(C)(C)C)c4ccccc4)C[C@@](O)([C@@H](OC(=O)c4ccccc4)[C@H]21)C3(C)C [Docetaxel] + CCCCCCCCCCCC1=C(O)C(=O)C=C(O)C1=O [Embelin] , respond with its Loewe synergy score.
stdout: 0.7

stdin: Given CC(=O)O[C@@]12CO[C@@H]1C[C@H](O)[C@@]1(C)C(=O)[C@H](O)C3=C(C)[C@@H](OC(=O)[C@H](O)[C@@H](NC(=O)OC(C)(C)C)c4ccccc4)C[C@@](O)([C@@H](OC(=O)c4ccccc4)[C@H]21)C3(C)C [Docetaxel] + O=c1[nH]c2ccccc2n1C1CCN(Cc2ccc(-c3[nH]c4cc5ncnc5cc4nc3-c3ccccc3)cc2)CC1 [Akt inhibitor VIII] , respond with its Loewe synergy score.
stdout: 2.83

stdin: Given C#Cc1cccc(Nc2ncnc3cc(OCCOC)c(OCCOC)cc23)c1 [Erlotinib] + CCCCCCCCCCCC1=C(O)C(=O)C=C(O)C1=O [Embelin] , respond with its Loewe synergy score.
stdout: 0

stdin: Given C[C@@H](Oc1cc(-c2cnn(C3CCNCC3)c2)cnc1N)c1c(Cl)ccc(F)c1Cl [Crizotinib] + CCOc1nc(NC(=O)Cc2cc(OC)ccc2OC)cc(N)c1C#N [JNK inhibitor VIII] , respond with its Loewe synergy score.
stdout: 0

stdin: Given CCCCCCCCCCCC1=C(O)C(=O)C=C(O)C1=O [Embelin] + O=c1[nH]c2ccccc2n1C1CCN(Cc2ccc(-c3[nH]c4cc5ncnc5cc4nc3-c3ccccc3)cc2)CC1 [Akt inhibitor VIII] , respond with its Loewe synergy score.
stdout: 1.72

stdin: Given C=CCc1cccc(/C=N/NC(=O)CN2CCN(Cc3ccccc3)CC2)c1O [PAC-1] + Cc1cc([C@@H](C)Nc2ccccc2C(=O)O)c2nc(N3CCOCC3)cc(=O)n2c1 [AZD6482] , respond with its Loewe synergy score.
stdout: 2.96

stdin: Given Nc1ccn([C@@H]2O[C@H](CO)[C@@H](O)C2(F)F)c(=O)n1 [Gemcitabine] + CCOc1nc(NC(=O)Cc2cc(OC)ccc2OC)cc(N)c1C#N [JNK inhibitor VIII] , respond with its Loewe synergy score.
stdout: 22.2
